test: in vitro; assay type: cell-based; settings: human, Caco-2 cells, Caco-2, 24 h, 2nd of five listed concentrations (not assigned); read-out: cell viability
assayReadout: viability at 24 h (%)

>>> endpointresult("O=c1c(-c2ccc(O)cc2)coc2cc(O)ccc12 [DAI, 4′,7-dihydroxyisoflavone]")
88.1

###

experiment: in vitro; format: cell-based; conditions: human, Caco-2 cells, Caco-2, 24 h, 5th of five listed concentrations (not assigned); read-out: cell viability
assayReadout: viability at 24 h

>>> endpointresult("O=c1c(-c2ccc(O)cc2)coc2cc(O)ccc12 [DAI, 4′,7-dihydroxyisoflavone]")
"94%"

###

experiment: Efflux function of the Caco-2 cell model with Rhodamine 123; format: in vitro ADME; details: human, 120 min
assayReadout: Papp A→B at 120 min (×10⁻⁶ cm/s)

>>> endpointresult("COC(=O)c1ccccc1-c1c2ccc(=N)cc-2oc2cc(N)ccc12")
0.179

###

assay: in vivo; settings: male, dog, plasma; beagle dogs, oral, 40 mg/kg
assayReadout: Tmax (min)

>>> endpointresult("O=c1c(-c2ccc(O)cc2)coc2cc(O)ccc12 [DAI, 4′,7-dihydroxyisoflavone]")
49.8

###

assay: Efflux function of the Caco-2 cell model with Rhodamine 123; format: in vitro ADME; conditions: human, 120 min
assayReadout: Papp B→A at 120 min

>>> endpointresult("COC(=O)c1ccccc1-c1c2ccc(=N)cc-2oc2cc(N)ccc12")
"0.852 ×10⁻⁶ cm/s"

###

test: in vitro; assay type: cell-based; details: human, Caco-2 cells, Caco-2, 24 h, 4th of five listed concentrations (not assigned); read-out: cell viability
assayReadout: viability at 24 h (%)

>>> endpointresult("O=c1c(-c2ccc(O)cc2)coc2cc(O)ccc12 [DAI, 4′,7-dihydroxyisoflavone]")
98

###

assay: in vivo; details: male, dog; beagle dogs, oral, 40 mg/kg, plasma
assayReadout: Cmax

>>> endpointresult("O=c1c(-c2ccc(O)cc2)coc2cc(O)ccc12 [DAI, 4′,7-dihydroxyisoflavone]")
"210 ng/mL"

###

assay: Efflux function of the Caco-2 cell model with Rhodamine 123; assay type: in vitro ADME; settings: human, Papp BL→AP / Papp AP→BL, read-out: Efflux ratio (ER)
assayReadout: efflux ratio at 120 min

>>> endpointresult("COC(=O)c1ccccc1-c1c2ccc(=N)cc-2oc2cc(N)ccc12")
4.76

###

assay: Powder dissolution (apparent solubility) in pH 6.8 phosphate buffer and water; format: physicochemical; conditions: water, 37 °C, water, thermodynamic from solid; read-out: maximum apparent solubility (Smax)
assayReadout: solubility at 240 min (µg/mL)

>>> endpointresult("O=c1c(-c2ccc(O)cc2)coc2cc(O)ccc12 [DAI, 4′,7-dihydroxyisoflavone]")
0.48
